Measured activation at 10 µg/mL accompanies every entry in the list below.
Tested on: Purkinje fiber
Test: Effect on APD (APD75, field-stimulated right ventricular free wall)
Format: cell-based, adult mongrel dog
Settings: Canis lupus familiaris, purkinje, 20 min, dose 10 μg/ml, 20 minutes incubation, 37° C., 1 Hz; control before drug = 100%; read-out: APD75 % (percent change in APD75)
readout-label: activation at 10 µg/mL (%)

[
  {
    "compound": "CC(C)C1CCN(CCCOc2ccc3c(c2)OCC3=O)CC1",
    "obs-value": 24
  },
  {
    "compound": "CCCCCCC[N+](CC)(CC)CCCOc1cccc2ccc(=O)oc12",
    "obs-value": 18
  },
  {
    "compound": "CC1CCCC(C)N1CCCOc1ccc2c(c1)OCC2=O (centres unmarked)",
    "obs-value": 27
  },
  {
    "compound": "CCCCCCC[N+](CC)(CC)CC(O)COc1ccc2c(c1)OCC2=O (centres unmarked)",
    "obs-value": 28
  },
  {
    "compound": "O=C1COc2cc(OCCCN3CCCC4CCCCC43)ccc21 (centres unmarked)",
    "obs-value": 13
  },
  {
    "compound": "CCCN(CCCOc1ccc2c(c1)OCC2=O)CCOC",
    "obs-value": 15
  },
  {
    "compound": "O=C1COc2cc(OCCCN3CCC(O)(c4ccccc4)CC3)ccc21",
    "obs-value": 14
  },
  {
    "compound": "CCCCN(CCCC)CCCOc1ccc2c(c1)OCC2=O",
    "obs-value": 33
  },
  {
    "compound": "CC(C)N(CCCOc1ccc2c(c1)OCC2=O)C(C)C",
    "obs-value": 44
  },
  {
    "compound": "CCCCCCC[N+](CC)(CC)CCCOc1ccc2oc(=O)cc(C)c2c1",
    "obs-value": 48
  },
  {
    "compound": "CCCCCCCN(CC)CCCOc1ccc2sc(=O)oc2c1",
    "obs-value": 7
  },
  {
    "compound": "O=C1COc2cc(OCCCN3CCC(c4ccccc4)CC3)ccc21",
    "obs-value": 65
  },
  {
    "compound": "CCN(CCCCCCO)CCCOc1ccc2c(c1)OCC2=O",
    "obs-value": 19
  },
  {
    "compound": "CC1CCCCN1CCCOc1ccc2c(c1)OCC2=O (centres unmarked)",
    "obs-value": 35
  },
  {
    "compound": "CC(C)CN(CCCOc1ccc2c(c1)OCC2=O)CC(C)C",
    "obs-value": 21
  },
  {
    "compound": "CC1CCN(CCCOc2ccc3c(c2)OCC3=O)C1 (centres unmarked)",
    "obs-value": 13
  },
  {
    "compound": "C=CCc1ccccc1OCC(O)C[N+](C)(C)C(C)C (centres unmarked)",
    "obs-value": 19
  },
  {
    "compound": "CC(=O)NC1CCN(CCCOc2ccc3c(c2)OCC3=O)CC1",
    "obs-value": 13
  },
  {
    "compound": "CCCCCCCN(CC)CCOc1ccc2c(c1)OCC2=O",
    "obs-value": 11
  },
  {
    "compound": "CCCCCN(CC)CCCCOc1ccc2c(c1)OCC2=O",
    "obs-value": 9
  }
]

###

Test: in vivo
Conditions: mouse, in vivo, po
Measured LD50 at 24 h accompanies every entry in the list below.

[
  {
    "compound": "O=C1COc2cc(OCCCN3CCC(C(=O)c4ccc(F)cc4)CC3)ccc21 [Compound 1236]",
    "LD50 at 24 h": "< 300 mg/kg"
  },
  {
    "compound": "O=C1COc2cc(OCCCN3CCC(O)(c4ccccc4)CC3)ccc21 [Compound 1150]",
    "LD50 at 24 h": "> 300 mg/kg"
  },
  {
    "compound": "O=C1COc2cc(OCCCN3CCC(CO)CC3)ccc21 [Compound 1290]",
    "LD50 at 24 h": "< 300 mg/kg"
  },
  {
    "compound": "CCC1CCN(CCCOc2ccc3c(c2)OCC3=O)CC1 [Compound 1274]",
    "LD50 at 24 h": "< 300 mg/kg"
  }
]

###

Test system: right ventricle (effective refractory period)
Experiment: Activity on ERP of the right ventricle
Assay type: in vivo, adult mongrel dog
Settings: Canis lupus familiaris, iv; 0.1 mg/kg i.v.; ERP before drug = 100%; read-out: ERP % (ERP prolonging activity)
Measured change in vivo at 0.1 mg/kg accompanies every entry in the list below.

[
  {
    "compound": "CC(C)NCC(O)c1ccc(NS(C)(=O)=O)cc1 (stereo not shown) [Sotalol, reference compound]",
    "change in vivo at 0.1 mg/kg": "1.7%"
  },
  {
    "compound": "CCCCN(CCCC)CCCOc1ccc2c(c1)OCC2=O",
    "change in vivo at 0.1 mg/kg": "10%"
  },
  {
    "compound": "CCCCCCCN(CC)CCCCOc1ccc2c(c1)OCC2=O",
    "change in vivo at 0.1 mg/kg": "7.1%"
  },
  {
    "compound": "COCCN(CCCOc1ccc2c(c1)OCC2=O)CCOC",
    "change in vivo at 0.1 mg/kg": "0%"
  },
  {
    "compound": "CCCCCCC[N+](CC)(CC)CCCOc1ccc2oc(=O)cc(C)c2c1",
    "change in vivo at 0.1 mg/kg": "3%"
  },
  {
    "compound": "CCCCCCC[N+](CC)(CC)CCCOc1ccc2c(c1)OCC2O (stereo not shown)",
    "change in vivo at 0.1 mg/kg": "0%"
  },
  {
    "compound": "CC1CCCN(CCCOc2ccc3c(c2)OCC3=O)C1 (stereo not shown)",
    "change in vivo at 0.1 mg/kg": "5%"
  },
  {
    "compound": "O=C1COc2cc(OCCCN3CCC(CO)CC3)ccc21",
    "change in vivo at 0.1 mg/kg": "0%"
  },
  {
    "compound": "CC(C)C1CCN(CCCOc2ccc3c(c2)OCC3=O)CC1",
    "change in vivo at 0.1 mg/kg": "1.6%"
  },
  {
    "compound": "CCCCCCC[N+](CC)(CC)CC(O)COc1ccc2c(c1)OCC2=O (stereo not shown)",
    "change in vivo at 0.1 mg/kg": "8%"
  }
]

###

Values of Ki reported for serotonine 2 receptor (Rattus norvegicus, UniProt P14842) appear below.
readout-label: Ki (nM)

[
  {
    "structure-smiles": "O=C1COc2cc(OCCCN3CCC4(CC3)C(=O)NCN4c3ccccc3)ccc21",
    "test-system": "serotonine 2 receptor (Rattus norvegicus, UniProt P14842)",
    "unit": "nM",
    "qualifying-sign": ">",
    "obs-value": 600
  },
  {
    "structure-smiles": "O=C1COc2cc(OCCCN3CCC(c4ccccc4)CC3)ccc21",
    "test-system": "serotonine 2 receptor (Rattus norvegicus, UniProt P14842)",
    "unit": "nM",
    "qualifying-sign": "=",
    "obs-value": 173
  },
  {
    "structure-smiles": "O=C1COc2cc(OCCCN3CCC(O)(c4ccc(Cl)cc4)CC3)ccc21",
    "test-system": "serotonine 2 receptor (Rattus norvegicus, UniProt P14842)",
    "unit": "nM",
    "qualifying-sign": ">",
    "obs-value": 298
  },
  {
    "structure-smiles": "O=C1COc2cc(OCCCN3CCC4(CC3)OCCO4)ccc21",
    "test-system": "serotonine 2 receptor (Rattus norvegicus, UniProt P14842)",
    "unit": "nM",
    "qualifying-sign": "=",
    "obs-value": 382
  }
]

###

Measured LD50 at 24 h accompanies every entry in the list below.
Experiment: in vivo
Conditions: mouse, in vivo, po, LD50 p.o., p.o., 24 hours after administration, male ddY mice

[
  {
    "compound": "CC1CCCC(C)N1CCCOc1ccc2c(c1)OCC2=O (stereo not shown)",
    "LD50 at 24 h": "> 300 mg/kg"
  },
  {
    "compound": "CCOC(=O)C1CCN(CCCOc2ccc3c(c2)OCC3=O)CC1",
    "LD50 at 24 h": "> 300 mg/kg"
  },
  {
    "compound": "CC[N+]1(CCCOc2ccc3c(c2)OCC3=O)CC(C)OC(C)C1 (stereo not shown)",
    "LD50 at 24 h": "> 300 mg/kg"
  },
  {
    "compound": "CC(=O)NC1CCN(CCCOc2ccc3c(c2)OCC3=O)CC1",
    "LD50 at 24 h": "> 300 mg/kg"
  },
  {
    "compound": "O=C1COc2cc(OCCCN3CCCC4CCCCC43)ccc21 (stereo not shown)",
    "LD50 at 24 h": "> 300 mg/kg"
  },
  {
    "compound": "O=C1COc2cc(OCCC[n+]3ccc(-c4ccccc4)cc3)ccc21",
    "LD50 at 24 h": "> 300 mg/kg"
  },
  {
    "compound": "CCCCCCCN(CC)CCOc1ccc2c(c1)OCC2=O",
    "LD50 at 24 h": "~300 mg/kg"
  },
  {
    "compound": "CS(=O)(=O)NC1CCN(CCCOc2ccc3c(c2)OCC3=O)CC1",
    "LD50 at 24 h": "> 300 mg/kg"
  },
  {
    "compound": "CCCCCN(CC)CCCCOc1ccc2c(c1)OCC2=O",
    "LD50 at 24 h": "~300 mg/kg"
  },
  {
    "compound": "CC1CCN(CCCOc2ccc3c(c2)OCC3=O)CC1",
    "LD50 at 24 h": "> 300 mg/kg"
  }
]
